molecular target: ATP-dependent 6-phosphofructokinase (Trypanosoma brucei brucei) (UniProt O15648); assay: qHTS Assay to Find Inhibitors of T. brucei phosphofructokinase: hit validation (AID 492961);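 further: luminescence reports ADP formed as PFK phosphorylates fructose-6-phosphate with ATP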; settings: T. brucei PFK, ADP-Glo luminescence; series mostly up to 51.4 µM
Sequence (O15648 whole entry, looked up): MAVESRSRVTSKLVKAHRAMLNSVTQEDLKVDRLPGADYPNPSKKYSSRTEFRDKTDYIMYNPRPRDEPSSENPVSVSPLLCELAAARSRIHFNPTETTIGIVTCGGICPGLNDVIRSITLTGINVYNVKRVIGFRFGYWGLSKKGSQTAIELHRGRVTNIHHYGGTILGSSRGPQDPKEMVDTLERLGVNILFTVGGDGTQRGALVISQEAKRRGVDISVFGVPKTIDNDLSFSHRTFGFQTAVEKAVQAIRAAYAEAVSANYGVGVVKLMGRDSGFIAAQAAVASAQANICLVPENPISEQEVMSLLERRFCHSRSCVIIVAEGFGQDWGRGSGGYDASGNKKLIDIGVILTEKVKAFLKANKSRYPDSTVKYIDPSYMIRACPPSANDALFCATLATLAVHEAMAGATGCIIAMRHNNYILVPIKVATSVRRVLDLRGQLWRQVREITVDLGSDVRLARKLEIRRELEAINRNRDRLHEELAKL
Results filed as inconclusive are left out. Active and inactive are the calls of the source. The call rests on the fitted dose curve; in most records, active means well fitted inhibition curve with a large enough effect; inconclusive means small, poorly fitted or top-dose-only effect, or effect the other way; inactive means flat fitted curve, though single readings scatter.
attribute_measured: outcome

These recorded examples may help you get a feel for the data.
# compound, outcome
data = [
    ("CCOC(=O)c1c[nH]c2cc(OCC(C)C)c(OCC(C)C)cc2c1=O", "inactive"),
    ("CCOc1ccc(S(=O)(=O)O)c2cccnc12", "inactive"),
    ("N[C@H](CC(=O)O)C(=O)O", "inactive"),
    ("CC(CC=O)CCCC(C)(C)O (stereo unspecified)", "inactive"),
    ("CC/C=C\\C/C=C\\C/C=C\\C/C=C\\C/C=C\\C/C=C\\CCC(=O)O", "inactive"),
    ("O=C(O)CCC/C=C\\C[C@@H]1[C@@H](/C=C/[C@@H](O)COc2cccc(Cl)c2)[C@H](O)C[C@@H]1O", "inactive"),
]

Next compound, outcome to be filled in.
Form entry - test system: ATP-dependent 6-phosphofructokinase (Trypanosoma brucei brucei) (UniProt O15648); read-out: outcome; compound: O=C(c1cc2ccccc2o1)N1CCN(Cc2ccccc2)CC1
inactive
